Conditions: mouse liver microsomes, 0 min, replicate 2 (right block), raw LC-MS area
Experimental Readout: Raw data: analyte peak area, T=0

1. O=C1NC(=O)C(=C/C=C/c2ccccc2)C(=O)N1 :: 4151
2. O=C(O)Cc1ccccc1Nc1c(Cl)cccc1Cl :: 19401
3. O=C1NC(=O)C(=Cc2ccc(N3CCOCC3)cc2[N+](=O)[O-])C(=O)N1 :: 19500
4. CC(C)NCC(O)COc1cccc2ccccc12 (stereo not shown) :: 94436

====

Assay: in vitro
Settings: mouse, liver microsomes, pH 7.4, % Remaining, T=10 min, n=1, mouse liver microsomes, 1 µM, 10 min, n=1
Listing: remaining at 10 min, 1 µM of selected compounds
Experimental Readout: remaining at 10 min, 1 µM (%)

1) O=C(O)Cc1ccccc1Nc1c(Cl)cccc1Cl :: 86.6
2) CC(C)NCC(O)COc1cccc2ccccc12 (centres unmarked) :: 46.8

====

Biological target: LbDHODH (Leishmania braziliensis)
Test: biochemical
Conditions: 0 h, pH 8.15, read-out: LbDHODH Activity±SD (%)
Listing: activity at 200 µM of selected compounds
Experimental Readout: activity at 200 µM (%)

1) O=C1NC(=O)C(=Cc2cccc(O)c2)C(=O)N1 :: 29
2) O=C1NC(=O)C(=Cc2ccc(-c3ccccc3)cc2)C(=O)N1 :: 43
3) O=C1NC(=O)C(=C/C=C/c2ccccc2)C(=O)N1 :: 1
4) COc1cc(C=C2C(=O)NC(=O)NC2=O)ccc1O :: 5
5) O=C1NC(=O)C(=Cc2ccc(C(=O)O)cc2)C(=O)N1 :: 60
6) O=C1NC(=O)C(=Cc2ccc(O)c([N+](=O)[O-])c2)C(=O)N1 :: 9
7) O=C1NC(=O)C(=Cc2ccccc2)C(=O)N1 :: 27

====

Details: mouse liver microsomes, 10 min, replicate 1 (left block), raw LC-MS area
Listing: Raw data: analyte peak area, T=10 of selected compounds
Experimental Readout: Raw data: analyte peak area, T=10

1. O=C1NC(=O)C(=C/C=C/c2ccccc2)C(=O)N1 :: 0
2. O=C1NC(=O)C(=Cc2ccc(N3CCOCC3)cc2[N+](=O)[O-])C(=O)N1 :: 18566
3. O=C(O)Cc1ccccc1Nc1c(Cl)cccc1Cl :: 15901
4. CC(C)NCC(O)COc1cccc2ccccc12 (stereo not shown) :: 45227

====

Listing: remaining at 1 h, 1 µM of selected compounds
Experiment: in vitro
Details: mouse, microsomes, pH 7.4, % Remaining, T=60 min, n=2, mouse liver microsomes, 1 µM, 60 min, n=2
Experimental Readout: remaining at 1 h, 1 µM (%)

1) O=C1NC(=O)C(=Cc2ccc(N3CCOCC3)cc2[N+](=O)[O-])C(=O)N1 :: 88.8
2) O=C1NC(=O)C(=C/C=C/c2ccccc2)C(=O)N1 :: 0
3) COc1cc(C=C2C(=O)NC(=O)NC2=O)ccc1O :: 13.3
4) O=C1NC(=O)C(=Cc2ccc(-c3ccccc3F)[nH]2)C(=O)N1 :: 0.16

====

Molecular target: LbDHODH (Leishmania braziliensis, UniProt E9AI53)
Sequence (E9AI53 entry or part of it): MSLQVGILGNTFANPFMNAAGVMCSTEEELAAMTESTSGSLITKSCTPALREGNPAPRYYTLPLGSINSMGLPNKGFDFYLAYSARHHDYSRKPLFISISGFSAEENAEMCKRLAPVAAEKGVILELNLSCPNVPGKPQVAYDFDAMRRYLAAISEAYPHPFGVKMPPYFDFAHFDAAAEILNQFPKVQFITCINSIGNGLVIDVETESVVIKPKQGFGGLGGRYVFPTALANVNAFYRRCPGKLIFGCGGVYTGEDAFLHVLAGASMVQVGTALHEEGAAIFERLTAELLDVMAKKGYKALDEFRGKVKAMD
Assay: biochemical
Settings: IC50 4 h, LbDHODH, 4-h preincubation
pIC50: −log10 of the molar value.
Experimental Readout: pIC50

1. O=C1NC(=O)C(=Cc2ccc(N3CCOCC3)cc2[N+](=O)[O-])C(=O)N1 :: 4.55
2. O=C1NC(=O)C(=Cc2ccccc2)C(=O)N1 :: 4.89
3. O=C(O)c1cc(=O)[nH]c(=O)[nH]1 [Orotate, orotate] :: 4.57
4. COc1cc(C=C2C(=O)NC(=O)NC2=O)ccc1O :: 4.05
5. O=C1NC(=O)C(=C/C=C/c2ccccc2)C(=O)N1 :: 6.30
6. O=C1NC(=O)C(=Cc2ccc(O)c([N+](=O)[O-])c2)C(=O)N1 :: 4.89
7. O=C1NC(=O)C(=Cc2cccc(O)c2)C(=O)N1 :: 4.89
8. O=C1NC(=O)C(=Cc2ccc(-c3ccccc3)cc2)C(=O)N1 :: 5.11
9. O=C1NC(=O)C(=Cc2ccc(C(=O)O)cc2)C(=O)N1 :: 4.66

====

Listing: microsomal CLint at 1 μM of selected compounds
Experiment: in vitro
Conditions: male, CD1, mouse, microsomes, pH 7.4
Experimental Readout: microsomal CLint at 1 μM

1) O=C1NC(=O)C(=C/C=C/c2ccccc2)C(=O)N1 [2i] :: > 578 µL/min/mg
2) O=C1NC(=O)C(=Cc2ccc(N3CCOCC3)cc2[N+](=O)[O-])C(=O)N1 [2e] :: < 14.4 µL/min/mg
3) O=C1NC(=O)C(=Cc2ccc(-c3ccccc3F)[nH]2)C(=O)N1 [2h] :: > 578 µL/min/mg
4) COc1cc(C=C2C(=O)NC(=O)NC2=O)ccc1O [2c] :: 283 µL/min/mg

====

Target: LbDHODH (Leishmania braziliensis, UniProt E9AI53)
Experiment: biochemical
Details: 0 h, pH 8.15, read-out: LbDHODH Activity±SD (%)
Please use Criterion met whenever activity at 1.5625 µM is not below 80%, and Criterion not met whenever it is.

1) O=C1NC(=O)C(=Cc2ccc(O)c([N+](=O)[O-])c2)C(=O)N1 :: Criterion not met
2) O=C1NC(=O)C(=C/C=C/c2ccccc2)C(=O)N1 :: Criterion not met
3) O=C1NC(=O)C(=Cc2ccccc2)C(=O)N1 :: Criterion met
4) O=C1NC(=O)C(=Cc2ccc(N3CCOCC3)cc2[N+](=O)[O-])C(=O)N1 :: Criterion not met
5) O=C1NC(=O)C(=Cc2ccc(-c3ccccc3)cc2)C(=O)N1 :: Criterion met
6) O=C1NC(=O)C(=Cc2cccc(O)c2)C(=O)N1 :: Criterion met
7) O=C1NC(=O)C(=Cc2ccc(C(=O)O)cc2)C(=O)N1 :: Criterion met

====

Target: LbDHODH (Leishmania braziliensis, UniProt E9AI53)
Assay: biochemical
Conditions: LbDHODH remaining activity, compound 100 μM, 4-h preincubation; read-out: single dose (4 h) % activity
Listing: activity at 100 µM of selected molecules
Experimental Readout: activity at 100 µM (%)

1. O=C(O)c1cc(=O)[nH]c(=O)[nH]1 [Orotate, orotate] :: 27
2. O=C1NC(=O)C(Cc2cccc(O)c2)C(=O)N1 [3g] :: 36
3. O=C1NC(=O)C(Cc2ccc(-c3ccccc3)cc2)C(=O)N1 [3f] :: 34
4. O=C1NC(=O)C(CCCc2ccccc2)C(=O)N1 [3ii] :: 21

====

Assay: in vitro
Settings: mouse, microsomes, pH 7.4, % Remaining, T=10 min, n=2, mouse liver microsomes, 1 µM, 10 min, n=2
Experimental Readout: remaining at 10 min, 1 µM (%)

1) COc1cc(C=C2C(=O)NC(=O)NC2=O)ccc1O [2c] :: 17.8
2) O=C1NC(=O)C(=Cc2ccc(N3CCOCC3)cc2[N+](=O)[O-])C(=O)N1 [2e] :: 109
3) O=C1NC(=O)C(=C/C=C/c2ccccc2)C(=O)N1 [2i] :: 0
4) O=C1NC(=O)C(=Cc2ccc(-c3ccccc3F)[nH]2)C(=O)N1 [2h] :: 1.7

====

Molecular target: LbDHODH (Leishmania braziliensis)
Assay: Kinact/KI determination from LbDHODH progress curves (kobs vs inhibitor concentration)
Type: biochemical
Conditions: inhibitor 3.125 µM
Listing: Kobs of selected compounds
Experimental Readout: Kobs (s⁻¹)

1. O=C1NC(=O)C(=Cc2ccccc2)C(=O)N1 :: 0.003356
2. O=C1NC(=O)C(=Cc2ccc(O)c([N+](=O)[O-])c2)C(=O)N1 :: 0.0038
3. O=C1NC(=O)C(=C/C=C/c2ccccc2)C(=O)N1 :: 0.005668
4. O=C1NC(=O)C(=Cc2cccc(O)c2)C(=O)N1 :: 0.003621

====

Biological target: HsDHODH (Homo sapiens, UniProt Q02127)
Construct: made in house
Sequence (Q02127 whole entry): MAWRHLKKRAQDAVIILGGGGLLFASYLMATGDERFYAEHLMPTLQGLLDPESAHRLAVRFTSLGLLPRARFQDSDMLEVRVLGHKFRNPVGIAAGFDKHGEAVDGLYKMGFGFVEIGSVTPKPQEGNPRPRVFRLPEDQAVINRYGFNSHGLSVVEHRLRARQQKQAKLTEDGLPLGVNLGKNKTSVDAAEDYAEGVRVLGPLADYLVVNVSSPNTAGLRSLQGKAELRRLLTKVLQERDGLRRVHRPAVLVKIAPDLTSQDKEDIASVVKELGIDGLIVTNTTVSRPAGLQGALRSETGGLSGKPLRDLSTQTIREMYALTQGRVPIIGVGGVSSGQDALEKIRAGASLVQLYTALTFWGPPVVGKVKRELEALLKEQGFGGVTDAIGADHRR
Assay: Selectivity assay: HsDHODH single-dose inhibition (DCIP reduction)
Assay type: biochemical
Details: read-out: Single dose (4h) % activity
Please use TRUE whenever activity at 100 µM is not below 80%, and FALSE whenever it is.

1. O=C1NC(=O)C(Cc2ccc(C(=O)O)cc2)C(=O)N1 [3b] :: TRUE
2. O=C1NC(=O)C(=Cc2ccc(-c3ccccc3F)[nH]2)C(=O)N1 [2h] :: FALSE
3. O=C1NC(=O)C(Cc2ccccc2)C(=O)N1 [3a] :: TRUE
4. O=C1NC(=O)C(CCCc2ccccc2)C(=O)N1 [3ii] :: TRUE
5. O=C1NC(=O)C(Cc2ccc(-c3ccccc3F)[nH]2)C(=O)N1 [3h] :: TRUE

====

Test: Parallel artificial membrane permeability assay (PAMPA)
Details: replicate n=1; 10µM (5% DMSO), PBS pH 7.4/7.4, 6h at room temperature, LC-MS/MS
Experimental Readout: Pe (nm/sec) n=1

1) NS(=O)(=O)c1cc(C(=O)O)c(NCc2ccco2)cc1Cl [Furosemide] :: 0.000533 nm/s
2) CC(C)NCC(O)COc1cccc2ccccc12 (stereo not shown) :: 53.6 nm/s
3) O=C1NC(=O)C(=Cc2ccc(N3CCOCC3)cc2[N+](=O)[O-])C(=O)N1 :: 0.00461 nm/s
4) NC(=O)N1c2ccccc2C=Cc2ccccc21 [Carbamazepine] :: 80.3 nm/s
